Every entry's value here was drawn from ChEMBL document CHEMBL4689842.

Tested on: HEK-293T
measurement.notes: Multiplex assay against HEK293T
Assay type: toxicity, cell-based
settings: human, 48 h, 10 µM, compound concentration 10 uM, replicate 1
Field: Total Cell Count. Provide a value for each of the compounds that follow.
Please respond with just the number, no unit label.

Item under review: O=C(c1cc2c(cc1F)OC(c1ccc(F)cc1)(c1ccc(Cl)cc1Cl)O2)N1CCOCC1 (stereo not given) . Reported Total Cell Count?
264

I would be grateful if you could share the reported Total Cell Count for CC(C)(C)NC[C@H](O)COc1nsnc1N1CCOCC1 .
545

Param item = COc1ccccc1CN[C@H]1C2CCN(CC2)[C@H]1C(c1ccccc1)c1ccccc1 ; retrieve measured Total Cell Count.
327

Sample Cc1ccc2c(c1)c1c(n2CCc2ccc(C)nc2)CCN(C)C1 [LATREPIRDINE] — what was its Total Cell Count?
246

Given Cc1ccc(C)c(Oc2ccncc2C(=O)N2CCN(C3CC3)c3ccccc32)c1 , state its recorded Total Cell Count.
206

###

Assign Population Mitochondria Different-Phenotype (%) to each entry below.
System: Fibroblast
measurement.notes: Multiplex assay against human fibroblast
Assay type: toxicity, cell-based
settings: 48 h, 10 µM, compound concentration 10 uM, replicate 1
Answer with a number only, understood to be in %.

Given the molecule COc1cc(Nc2nccc(-c3cnn4nc(OC)ccc34)n2)cc(C(F)(F)F)c1 , what is its reported Population Mitochondria Different-Phenotype (%)?
6

Fill in the blank: the reported Population Mitochondria Different-Phenotype (%) of Cl.O=C(O)c1cc(-c2ccc(C3CCNCC3)cc2)c2ccc(-c3ccc(C(F)(F)F)cc3)cc2c1 is ____.
9

Consider the molecule COc1ccccc1CN[C@H]1C2CCN(CC2)[C@H]1C(c1ccccc1)c1ccccc1 and give its measured Population Mitochondria Different-Phenotype (%).
36

Fill blank: measured Population Mitochondria Different-Phenotype (%) of the molecule C[C@]12CC[C@@H]3c4ccc(O)cc4CC[C@H]3[C@@H]1CC[C@@H]2O is ____.
3

Quick one: Population Mitochondria Different-Phenotype (%) for Cc1ccc2c(c1)c1c(n2CCc2ccc(C)nc2)CCN(C)C1 [LATREPIRDINE] ?
21

Requested read-out: Population Mitochondria Different-Phenotype (%). Entry: CCCSc1nc(N[C@@H]2C[C@H]2c2ccc(F)c(F)c2)c2nnn([C@@H]3C[C@H](OCCO)[C@@H](O)[C@H]3O)c2n1
62

Data request, read-out Population Mitochondria Different-Phenotype (%), for C#Cc1cccc(Nc2ncnc3cc(OCCOC)c(OCCOC)cc23)c1
33

Fill in: Population Mitochondria Different-Phenotype (%) of CCOC(=O)Nc1cc(-c2ccc(C)c(NS(C)(=O)=O)c2)nn2c(C)nnc12 is ___
0

###

Test system: U2OS
measurement.notes: Multiplex assay against U2OS
Assay type: toxicity, cell-based
settings: human, 24 h, 1 µM, compound concentration 1 uM, replicate 1
parameter.measured: Population Apoptotic (%)
// note: answer is a bare numeric in %

Field request: Population Apoptotic (%) | item: CC(C)CC(=O)Nc1[nH]nc2c1CN(C(=O)C1CCN(C)CC1)C2(C)C
22

Request the reported Population Apoptotic (%) associated with COc1cc(Nc2nccc(-c3cnn4nc(OC)ccc34)n2)cc(C(F)(F)F)c1
24

Entry under review: COc1ccc(-c2ccc3ncc4c(c3c2)n(-c2ccc(N3CCNCC3)c(C(F)(F)F)c2)c(=O)n4C)cn1.O=C(O)/C=C\C(=O)O . Reported Population Apoptotic (%)?
98

Fill in the blank: the reported Population Apoptotic (%) of CC(C)Oc1ccccc1C(=O)Nc1ccccc1C(=O)Nc1cccc(S(=O)(=O)C(F)(F)F)c1 is ____.
55

Which Population Apoptotic (%) value is on record for CCc1ccc(OCc2ccccc2C(=O)Nc2ccc3nc(C)cc(N)c3c2)cc1.Cl ?
90

Reported Population Apoptotic (%) for C[C@]12CC[C@@H]3c4ccc(O)cc4CC[C@H]3[C@@H]1CC[C@@H]2O : what is it?
0

// returns reported Population Apoptotic (%) for input Cc1ccc(C)c(Oc2ccncc2C(=O)N2CCN(C3CC3)c3ccccc32)c1
47

So what does the record say about Population Apoptotic (%) for CC(C)OC(=O)N1CCC(Oc2ncnc3c2cnn3-c2ccc(S(C)(=O)=O)cc2F)CC1 ?
57

Param item = O=c1[nH]c2ccccc2n1C1CCN(Cc2ccc(-c3[nH]c4cc5ncnc5cc4nc3-c3ccccc3)cc2)CC1 ; retrieve measured Population Apoptotic (%).
42
